Property: residual activity; scope: individual compounds
assay.target: Angiopoietin-1 receptor (Homo sapiens) (UniProt Q02763)
Sequence (Q02763 whole entry): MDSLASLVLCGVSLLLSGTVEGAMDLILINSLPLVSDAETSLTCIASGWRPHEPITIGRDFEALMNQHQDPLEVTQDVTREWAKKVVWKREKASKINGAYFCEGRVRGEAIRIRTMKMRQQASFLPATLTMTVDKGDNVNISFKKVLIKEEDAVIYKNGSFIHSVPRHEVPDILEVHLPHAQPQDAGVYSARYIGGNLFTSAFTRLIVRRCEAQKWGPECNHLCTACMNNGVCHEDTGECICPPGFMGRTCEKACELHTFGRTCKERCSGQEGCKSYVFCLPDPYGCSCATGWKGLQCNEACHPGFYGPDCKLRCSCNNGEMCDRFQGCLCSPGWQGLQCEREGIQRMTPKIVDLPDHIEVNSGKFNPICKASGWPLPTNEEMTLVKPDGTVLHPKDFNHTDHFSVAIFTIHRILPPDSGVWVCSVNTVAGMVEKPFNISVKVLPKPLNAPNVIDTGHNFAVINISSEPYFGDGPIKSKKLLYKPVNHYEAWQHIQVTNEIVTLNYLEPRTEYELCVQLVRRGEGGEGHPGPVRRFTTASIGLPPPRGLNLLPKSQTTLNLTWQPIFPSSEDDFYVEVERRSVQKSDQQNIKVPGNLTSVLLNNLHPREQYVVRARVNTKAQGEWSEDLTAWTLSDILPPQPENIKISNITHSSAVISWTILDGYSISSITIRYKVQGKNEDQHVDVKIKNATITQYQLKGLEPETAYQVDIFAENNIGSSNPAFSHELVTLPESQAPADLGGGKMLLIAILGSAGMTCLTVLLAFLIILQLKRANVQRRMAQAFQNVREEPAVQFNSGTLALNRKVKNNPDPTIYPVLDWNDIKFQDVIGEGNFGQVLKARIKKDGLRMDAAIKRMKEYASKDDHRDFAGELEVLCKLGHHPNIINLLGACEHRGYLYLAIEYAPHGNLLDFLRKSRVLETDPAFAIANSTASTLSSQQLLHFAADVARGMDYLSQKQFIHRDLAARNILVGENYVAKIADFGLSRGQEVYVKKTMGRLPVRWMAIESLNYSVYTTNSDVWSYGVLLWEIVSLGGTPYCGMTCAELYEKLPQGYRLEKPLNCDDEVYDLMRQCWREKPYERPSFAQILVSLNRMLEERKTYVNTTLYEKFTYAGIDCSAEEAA
condition.parameters: at 10 µM

# compound.structure, result.unit, residual activity
records = [
    ("COc1cc(OC)c(/C=C2\\C(=O)Nc3ccccc32)c(OC)c1", "%", 59),
    ("CC(C)[C@H](CO)Nc1nc(Nc2cccc(Cl)c2)c2ncn(C(C)C)c2n1", "%", 59),
    ("O=[N+]([O-])/C=C/c1ccc2c(c1)OCO2", "%", 60),
]

---

Examples of compounds with documented residual activity follow.
assay.target: Death-associated protein kinase 1 (Homo sapiens) (UniProt P53355)
Sequence (P53355 whole entry, looked up): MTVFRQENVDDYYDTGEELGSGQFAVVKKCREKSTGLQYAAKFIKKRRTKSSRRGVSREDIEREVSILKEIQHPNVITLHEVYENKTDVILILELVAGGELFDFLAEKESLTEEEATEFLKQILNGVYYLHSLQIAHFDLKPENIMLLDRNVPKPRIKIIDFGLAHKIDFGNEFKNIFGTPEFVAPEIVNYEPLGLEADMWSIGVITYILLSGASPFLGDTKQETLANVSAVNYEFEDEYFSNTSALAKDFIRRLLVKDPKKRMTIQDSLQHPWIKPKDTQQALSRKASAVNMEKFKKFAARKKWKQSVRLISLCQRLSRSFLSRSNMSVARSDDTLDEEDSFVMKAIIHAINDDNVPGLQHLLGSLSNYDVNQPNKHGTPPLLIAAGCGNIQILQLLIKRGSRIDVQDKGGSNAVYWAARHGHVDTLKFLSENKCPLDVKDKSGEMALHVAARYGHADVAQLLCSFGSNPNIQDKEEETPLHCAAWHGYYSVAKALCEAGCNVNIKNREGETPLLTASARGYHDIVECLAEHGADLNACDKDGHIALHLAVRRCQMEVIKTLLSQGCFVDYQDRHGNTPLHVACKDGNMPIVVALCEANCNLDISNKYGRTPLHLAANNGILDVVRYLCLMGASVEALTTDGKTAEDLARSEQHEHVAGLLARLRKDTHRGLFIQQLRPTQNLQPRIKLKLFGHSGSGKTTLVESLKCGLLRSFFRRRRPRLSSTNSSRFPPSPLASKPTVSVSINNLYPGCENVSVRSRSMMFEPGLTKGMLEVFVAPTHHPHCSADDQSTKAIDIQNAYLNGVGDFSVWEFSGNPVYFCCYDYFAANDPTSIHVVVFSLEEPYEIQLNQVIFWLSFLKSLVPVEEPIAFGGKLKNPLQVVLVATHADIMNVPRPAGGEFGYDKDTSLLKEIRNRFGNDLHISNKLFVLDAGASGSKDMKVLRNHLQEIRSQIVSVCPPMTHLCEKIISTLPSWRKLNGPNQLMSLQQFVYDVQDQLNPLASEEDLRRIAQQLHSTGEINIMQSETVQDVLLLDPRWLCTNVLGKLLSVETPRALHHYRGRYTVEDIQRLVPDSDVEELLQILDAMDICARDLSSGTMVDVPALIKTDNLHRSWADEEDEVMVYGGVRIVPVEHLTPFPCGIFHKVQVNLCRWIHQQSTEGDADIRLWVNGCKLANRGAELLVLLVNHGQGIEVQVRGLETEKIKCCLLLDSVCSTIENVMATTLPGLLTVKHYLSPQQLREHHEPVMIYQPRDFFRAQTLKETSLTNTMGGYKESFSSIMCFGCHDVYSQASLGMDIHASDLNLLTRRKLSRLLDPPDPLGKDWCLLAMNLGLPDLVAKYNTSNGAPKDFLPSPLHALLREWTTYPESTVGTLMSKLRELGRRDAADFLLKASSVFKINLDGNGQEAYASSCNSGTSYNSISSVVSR
condition.parameters: at 1 µM

# compound.structure, residual activity, %
data = [
    ("O=C1C(Cl)=C(N2C(=O)CCC2=O)C(=O)c2ccccc21", 91),
    ("CN(C)S(=O)(=O)c1ccc2c(c1)/C(=C/c1cc3c([nH]1)CCCC3)C(=O)N2", 90),
    ("O=c1cc(N2CCOCC2)oc2c1ccc1ccccc12", 90),
    ("Oc1ccc(Nc2nc(-c3ccc(Cl)cc3)cs2)cc1", 90),
    ("c1ccc(-c2n[nH]cc2-c2ccnc3ccccc23)nc1", 91),
    ("Nc1cccc(-c2cc3c(Oc4cccc(O)c4)ncnc3[nH]2)c1", 89),
]

---

assay.target: Calcium/calmodulin-dependent protein kinase type II subunit delta (Homo sapiens)
condition.parameters: at 10 µM
measured.endpoint: residual activity (%)

# compound.structure, measurement
measured = [
    ("O=C1NC(=O)c2c1c1c3ccccc3n3c1c1c2c2ccccc2n1C1CCC3O1", 5),
    ("CC(C)(C)c1cc(C=C(C#N)C#N)cc(Br)c1O", 46),
    ("O=C1c2ccccc2-c2nc3nnnn3nc21", 103),
    ("O=c1[nH]c2ccccc2n1C1CCN(Cc2ccc(-c3nc4cc5[nH]cnc5cc4nc3-c3ccccc3)cc2)CC1", 2),
    ("COc1ccc2c(c1)/C(=C/c1cnc[nH]1)C(=O)N2", 8),
    ("c1cc(-c2cnn3cc(-c4ccc(OCCN5CCCCC5)cc4)cnc23)ccn1", 6),
    ("CCc1nc(-c2ccc(OC)cc2)[nH]c1-c1ccncc1", 80),
]

---

assay.target: Insulin-like growth factor 1 receptor (Homo sapiens)
condition.parameters: at 10 µM
Measured residual activity, listed per entry for reference.

# molecule, residual activity, %
measured = [
    ("C[S+]([O-])c1ccc(-c2nc(-c3ccc(F)cc3)c(-c3ccncc3)[nH]2)cc1 (centres undefined)", 117),
    ("CCn1cnc2c(Nc3cccc(Cl)c3)nc(N[C@@H]3CCCC[C@@H]3N)nc21", 123),
    ("CCc1nc(-c2ccc(OC)cc2)[nH]c1-c1ccncc1", 128),
    ("O=C1Nc2ccc3ncsc3c2/C1=C/c1c[nH]cn1", 68),
]

---

Consider the following molecules and their measured residual activity readings.
assay.target: Serine/threonine-protein kinase Sgk3 (Homo sapiens) (UniProt Q96BR1)
Sequence (Q96BR1 whole entry): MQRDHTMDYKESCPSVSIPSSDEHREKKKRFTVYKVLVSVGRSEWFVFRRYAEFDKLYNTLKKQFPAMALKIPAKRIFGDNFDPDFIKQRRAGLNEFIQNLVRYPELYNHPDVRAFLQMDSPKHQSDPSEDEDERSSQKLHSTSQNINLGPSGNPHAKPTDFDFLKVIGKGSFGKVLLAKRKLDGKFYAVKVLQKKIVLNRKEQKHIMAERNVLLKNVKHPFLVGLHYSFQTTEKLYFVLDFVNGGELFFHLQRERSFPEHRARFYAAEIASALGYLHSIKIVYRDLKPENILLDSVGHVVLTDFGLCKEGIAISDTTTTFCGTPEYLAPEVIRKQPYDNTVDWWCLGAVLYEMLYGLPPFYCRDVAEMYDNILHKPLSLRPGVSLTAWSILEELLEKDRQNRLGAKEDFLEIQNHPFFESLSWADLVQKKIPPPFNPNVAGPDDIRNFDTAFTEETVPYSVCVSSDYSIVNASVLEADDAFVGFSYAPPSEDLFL
condition.parameters: at 1 µM

# compound.structure, result.unit, residual activity
data = [
    ("CCC(=O)Nc1ccc2ncnc(Nc3cccc(Br)c3)c2c1", "%", 105),
    ("COc1ccc(OC)c2c(=S)c3ccccc3[nH]c12", "%", 112),
    ("COc1cc2ncnc(Nc3ccc(Oc4ccccc4)cc3)c2cc1OC", "%", 110),
    ("CCCCc1c(-c2ccc(O)cc2)[nH]c2nccnc12", "%", 98),
    ("CCN(CC)CCCCN1c2ccccc2Oc2ccc(Cl)cc21", "%", 107),
    ("CNc1cc2c(Nc3cccc(Br)c3)ncnc2cn1", "%", 103),
    ("CC(C)n1cnc2c(NCc3ccccc3)nc(NCCCO)nc21", "%", 89),
    ("c1ccc2c(-c3ccncc3)c[nH]c2c1", "%", 101),
    ("O=C1Nc2cc(Br)ccc2/C1=C1/Nc2ccccc2/C1=N\\O", "%", 86),
    ("CCCC(=O)Oc1ccc2[nH]c(C(=O)c3cc4ccccc4[nH]3)cc2c1", "%", 94),
    ("CN(C)CCCn1cc(C2=C(c3c[nH]c4ccccc34)C(=O)NC2=O)c2ccccc21", "%", 101),
]

Sourced from ChEMBL document CHEMBL2218924
